B1: C8orf76 (parent)
chain: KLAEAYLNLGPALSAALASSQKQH

Variants of: B1
Test: protein stability index of a GFP-peptide fusion (GPS, HEK-293T) (PSI 1-6); higher = more stable;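 further: lentivirally expressed fusions sorted by FACS into six bins by GFP to DsRed ratio, PSI derived from sequencing read proportions per bin multiplied by bin number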
Settings: c terminus: a fixed tail appended
Kindly return Yes if reported protein stability index is no lower than 3; return No if it is lower.

Below, 8 variants whose answers are already recorded.
Would you say "L9E" shows protein stability index at minimum 3?
No

Next up: "K1N"
Yes

Now the variant "S14F"
Yes

Same thing, different variant: "S14T"
Yes

Now the same for "H24N"
No

Now this one: "S19Q"
No

Now the variant "N8Q"
No

What do you have for "A16P" ?
No

Others:
Entry "G10C" : is its protein stability index no less than 3?
No

"A5Q" ?
No

Try this variant too: "N8E"
No

Next variant up: "A12H"
No

Then what about the variant "N8L" ?
No

Then "Y6K" ?
Yes

"Q23H" , same question.
No
